Reported MBC values are given for each entry in this list.
System: Lysinibacillus sphaericus
Test: Antibacterial activity against Lysinibacillus sphaericus MTCC 11 assessed as growth arrest at 37 degC for 24 hr
Type: functional
Conditions: MTCC 11, 24 h
endpoint label: MBC (µg/mL)

[[record]]
compound = "COc1ccc(Cc2ccc(OC)c(C3SC4C(=NN(c5ccc(Cl)cc5)C4c4ccc(F)cc4)N3c3ccc(Cl)cc3)c2)cc1C1SC2C(=NN(c3ccc(Cl)cc3)C2c2ccc(F)cc2)N1c1ccc(Cl)cc1 (stereo not given)"
reading_unit = "µg/mL"
reported_measurement = 25

[[record]]
compound = "COc1ccc(Cc2ccc(OC)c(C3SC4C(=NN(C(C)C)C4c4ccc(F)cc4)N3c3ccc([N+](=O)[O-])cc3)c2)cc1C1SC2C(=NN(C(C)C)C2c2ccc(F)cc2)N1c1ccc([N+](=O)[O-])cc1 (stereo not given)"
reading_unit = "µg/mL"
reported_measurement = 50

[[record]]
compound = "COc1ccc(Cc2ccc(OC)c(C3SC4C(=NN(c5ccc(Cl)cc5)C4c4ccc(F)cc4)N3c3ccc([N+](=O)[O-])cc3)c2)cc1C1SC2C(=NN(c3ccc(Cl)cc3)C2c2ccc(F)cc2)N1c1ccc([N+](=O)[O-])cc1 (stereo not given)"
reading_unit = "µg/mL"
reported_measurement = 50

[[record]]
compound = "COc1ccc(N2N=C3C(SC(c4cc(Cc5ccc(OC)c(C6SC7C(=NN(c8ccc(OC)cc8)C7c7ccc(F)cc7)N6c6ccc([N+](=O)[O-])cc6)c5)ccc4OC)N3c3ccc([N+](=O)[O-])cc3)C2c2ccc(F)cc2)cc1 (stereo not given)"
reading_unit = "µg/mL"
reported_measurement = 50

[[record]]
compound = "COc1ccc(Cc2ccc(OC)c(C3SC4C(=NN(C)C4c4ccc(F)cc4)N3c3ccc(C)cc3)c2)cc1C1SC2C(=NN(C)C2c2ccc(F)cc2)N1c1ccc(C)cc1 (stereo not given)"
reading_unit = "µg/mL"
reported_measurement = 25.5

[[record]]
compound = "COc1ccc(Cc2ccc(OC)c(C3SC4C(=NN(C(C)C)C4c4ccc(F)cc4)N3c3ccc(Cl)cc3)c2)cc1C1SC2C(=NN(C(C)C)C2c2ccc(F)cc2)N1c1ccc(Cl)cc1 (stereo not given)"
reading_unit = "µg/mL"
reported_measurement = 50

[[record]]
compound = "COc1ccc(Cc2ccc(OC)c(C3SC4C(=NN(Cc5ccccc5)C4c4ccc(F)cc4)N3c3ccc(Cl)cc3)c2)cc1C1SC2C(=NN(Cc3ccccc3)C2c2ccc(F)cc2)N1c1ccc(Cl)cc1 (stereo not given)"
reading_unit = "µg/mL"
reported_measurement = 50

[[record]]
compound = "COc1ccc(Cc2ccc(OC)c(C3SC4C(=NN(C)C4c4ccc(F)cc4)N3c3ccc(Cl)cc3)c2)cc1C1SC2C(=NN(C)C2c2ccc(F)cc2)N1c1ccc(Cl)cc1 (stereo not given)"
reading_unit = "µg/mL"
reported_measurement = 25

[[record]]
compound = "COc1ccc(Cc2ccc(OC)c(C3SC4C(=NN(Cc5ccccc5)C4c4ccc(F)cc4)N3c3ccc(C)cc3)c2)cc1C1SC2C(=NN(Cc3ccccc3)C2c2ccc(F)cc2)N1c1ccc(C)cc1 (stereo not given)"
reading_unit = "µg/mL"
reported_measurement = 12.5

[[record]]
compound = "COc1ccc(Cc2ccc(OC)c(C3SC4C(=NN(c5ccccc5)C4c4ccc(F)cc4)N3c3ccc([N+](=O)[O-])cc3)c2)cc1C1SC2C(=NN(c3ccccc3)C2c2ccc(F)cc2)N1c1ccc([N+](=O)[O-])cc1 (stereo not given)"
reading_unit = "µg/mL"
reported_measurement = 12.5

[[record]]
compound = "COc1ccc(Cc2ccc(OC)c(C3SC4C(=NN(Cc5ccccc5)C4c4ccc(F)cc4)N3c3ccc([N+](=O)[O-])cc3)c2)cc1C1SC2C(=NN(Cc3ccccc3)C2c2ccc(F)cc2)N1c1ccc([N+](=O)[O-])cc1 (stereo not given)"
reading_unit = "µg/mL"
reported_measurement = 50

[[record]]
compound = "COc1ccc(Cc2ccc(OC)c(C3SC4C(=NN(c5ccccc5)C4c4ccc(F)cc4)N3c3ccc(C)cc3)c2)cc1C1SC2C(=NN(c3ccccc3)C2c2ccc(F)cc2)N1c1ccc(C)cc1 (stereo not given)"
reading_unit = "µg/mL"
reported_measurement = 50

[[record]]
compound = "CC1(C)S[C@@H]2[C@H](NC(=O)Cc3ccccc3)C(=O)N2[C@H]1C(=O)O [PENICILLIN G]"
reading_unit = "µg/mL"
reported_measurement = 25

[[record]]
compound = "COc1ccc(N2N=C3C(SC(c4cc(Cc5ccc(OC)c(C6SC7C(=NN(c8ccc(OC)cc8)C7c7ccc(F)cc7)N6c6ccc(C)cc6)c5)ccc4OC)N3c3ccc(C)cc3)C2c2ccc(F)cc2)cc1 (stereo not given)"
reading_unit = "µg/mL"
reported_measurement = 50

[[record]]
compound = "CN[C@@H]1[C@H](O[C@H]2[C@H](O[C@H]3[C@H](O)[C@@H](O)[C@H](N=C(N)N)[C@@H](O)[C@@H]3N=C(N)N)O[C@@H](C)[C@]2(O)C=O)O[C@@H](CO)[C@H](O)[C@H]1O [STREPTOMYCIN]"
reading_unit = "µg/mL"
reported_measurement = 25

